# Experimental system: AKT (Homo sapiens)
# Sequence (P31749 whole entry): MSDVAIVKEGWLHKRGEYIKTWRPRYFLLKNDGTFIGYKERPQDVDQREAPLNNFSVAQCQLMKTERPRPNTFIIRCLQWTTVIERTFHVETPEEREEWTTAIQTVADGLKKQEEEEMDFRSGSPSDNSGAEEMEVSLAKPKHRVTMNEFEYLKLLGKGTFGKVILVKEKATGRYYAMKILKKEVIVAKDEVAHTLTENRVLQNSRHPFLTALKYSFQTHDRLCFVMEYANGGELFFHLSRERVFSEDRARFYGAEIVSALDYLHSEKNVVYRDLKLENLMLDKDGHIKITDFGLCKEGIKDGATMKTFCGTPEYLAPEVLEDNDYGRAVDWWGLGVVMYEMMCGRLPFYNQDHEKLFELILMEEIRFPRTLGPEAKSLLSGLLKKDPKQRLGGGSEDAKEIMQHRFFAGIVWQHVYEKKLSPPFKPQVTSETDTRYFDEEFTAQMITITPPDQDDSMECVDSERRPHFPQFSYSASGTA
# Experiment summary: RBC HotSpot kinase assay (33P-ATP, P81 filter-binding), AKT
# Type: biochemical
# Assay conditions: Table 28, biochemical kinase assay; read-out: AKT IC50
Measured endpoint: IC50 (nM)
Give the value, in units of nM, as a plain number.

Dear colleague, I am looking for the recorded IC50 of the following molecule: NCc1ccc(-c2ccnc3[nH]cc(Cl)c23)cc1-c1ccccc1 68.4

What measured IC50 goes with c1cc(-c2ccc(C3CCCCN3)cc2)c2cc[nH]c2n1 (stereo not drawn) ? 428

I am curious: what IC50 value has been reported for CC(C)(C)Nc1cc(-c2ccnc3[nH]ccc23)ccc1C1CCNCC1 ? 1650

Need IC50, item Cc1ccccc1-c1c[nH]c2nccc(-c3ccc(CN)cc3)c12 6340

Field request: IC50 | item: Cc1cc(-c2ccnc3[nH]cc(F)c23)ccc1CN 312

Please report the recorded IC50 for NCC(=O)N1CCC(c2ccc(-c3ccnc4[nH]cc(F)c34)cc2Cl)CC1 . 1080

Which IC50 reading was recorded for the molecule Fc1cc(C2CCNCC2)ccc1-c1ccnc2[nH]ccc12 ? 3360

Would you mind telling me what IC50 value was observed for OC1(c2ccc(-c3ccnc4[nH]ccc34)cc2)C[C@H]2CC[C@@H](C1)N2 (stereo partly drawn) ? 176

Name the recorded IC50 for OC1(c2ccc(-c3ccnc4[nH]cc(Br)c34)cc2)CCNCC1 . 240

I am curious: what IC50 value has been reported for c1cc(-c2ccc(C3CCNCC3)nc2)c2cc[nH]c2n1 ? 640

Record request: IC50 value, item Clc1cc(-c2ccnc3[nH]ccc23)ccc1C1CCNCC1 753

Item under review: Cc1cc(-c2ccnc3[nH]cc(F)c23)cc(F)c1[C@@]1(O)[C@H](C)CN(C(=O)[C@@H](CO)N(C)C)C[C@@H]1C . Reported IC50? 312

Entry FC(F)(F)Oc1cccc(CNCc2ccc(-c3ccnc4[nH]ccc34)cc2)c1 has what IC50? 1990

Param item = Cc1c[nH]c2nccc(-c3cc(F)c([C@@]4(O)[C@H](C)CNC[C@@H]4C)c(F)c3)c12 ; retrieve measured IC50. 362

Sample C[C@@H]1CN(C)C[C@H](C)[C@@]1(O)c1cnc(-c2ccnc3[nH]cc(F)c23)cc1Cl — what was its IC50? 505

###

# Experimental system: UniProtKB P31749
# Experiment summary: RBC HotSpot kinase assay (33P-ATP, P81 filter-binding), AKT
# Format: biochemical
# Assay conditions: Table 28, biochemical kinase assay; read-out: AKT IC50
pIC50: −log10 of the molar value.
Label 0 (no) if pIC50 falls below 6; label 1 (yes) in every other case.

Confirm if pIC50 reported for the molecule NCc1ccc(-c2ccnc3[nH]ccc23)cc1-c1ccccc1 is 6 or above. 1 (yes)

Has OC1(c2ccc(-c3ccnc4[nH]cc(Br)c34)cc2Cl)C[C@H]2CC[C@@H](C1)N2 (some centres unmarked) a recorded pIC50 greater than or equal to 6? 1 (yes)

Dear colleague, could you confirm whether COc1cc(C2CCNCC2)ccc1-c1ccnc2[nH]ccc12 has pIC50 at or above 6? 0 (no)

Please check the record C[C@@H]1CN(C(CF)CF)C[C@H](C)C1(O)c1ccc(-c2ccnc3[nH]cc(F)c23)cc1Cl (some centres unmarked) and state if its pIC50 is at or above 6. 1 (yes)

Please tell me: is the molecule C[C@H](N)C(=O)N1C[C@@H](C)C(O)(c2c(F)cc(-c3ccnc4[nH]cc(F)c34)cc2F)[C@@H](C)C1 (some centres unmarked) at or over 6 in terms of pIC50? 1 (yes)
